- measured_on: recombinant cynomolgus monkey CD3ε/δ heterodimer (cynomolgus monkey) (UniProt Q95LI5)
- Sequence (Q95LI5 22-117, stated change not applied, chain 1 of 2): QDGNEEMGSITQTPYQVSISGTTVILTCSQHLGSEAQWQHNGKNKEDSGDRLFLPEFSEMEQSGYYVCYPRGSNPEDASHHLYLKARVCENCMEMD
- Sequence (Q95LI8 22-105, stated change not applied, chain 2 of 2, further chain): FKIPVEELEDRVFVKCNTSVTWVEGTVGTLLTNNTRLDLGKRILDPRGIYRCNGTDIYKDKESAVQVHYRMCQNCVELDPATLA
- measurement_protocol: ELISA, coated CD3ε/δ; also: test concentration or dose not given here
Known Absorbance (450 nm) of a selection of binders
metric: Absorbance (450 nm)

1) D07 (antibody, human IgG1, lambda, L234A L235A, V domains shown) VH: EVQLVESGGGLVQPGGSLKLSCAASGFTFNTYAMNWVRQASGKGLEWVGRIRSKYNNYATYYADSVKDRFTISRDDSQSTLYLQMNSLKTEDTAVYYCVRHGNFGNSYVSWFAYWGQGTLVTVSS VL: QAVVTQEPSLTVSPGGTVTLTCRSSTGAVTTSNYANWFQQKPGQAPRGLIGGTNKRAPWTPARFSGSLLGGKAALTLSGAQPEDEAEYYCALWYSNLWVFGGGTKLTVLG
2.39
2) A05 (antibody, human IgG1, lambda, L234A L235A, V domains shown) VH: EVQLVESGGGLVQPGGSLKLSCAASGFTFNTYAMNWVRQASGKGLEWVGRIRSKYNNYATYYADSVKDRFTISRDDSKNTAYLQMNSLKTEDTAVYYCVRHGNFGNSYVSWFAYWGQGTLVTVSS VL: QAVVTQEPSLTVSPGGTVTLTCRSSTGAVTTSNYANWFQQKPGQAPRGLIYGTNKRAPWTPARFSGSLLGGKAALTLSGAQPEDEAEYYCALWYSNLWVFGGGTKLTVLG
0.141
3) B12 (antibody, human IgG1, lambda, L234A L235A, V domains shown) VH: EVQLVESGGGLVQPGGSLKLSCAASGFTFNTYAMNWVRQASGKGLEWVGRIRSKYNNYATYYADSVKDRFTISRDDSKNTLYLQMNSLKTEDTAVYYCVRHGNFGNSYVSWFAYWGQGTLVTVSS VL: QAVVTQEPSLTVSPGGTVTLTCRSSTGAVTTSNYANWVQQKPGQAPRTLIGGTNKRAPWTPARFSGSLLGDKAALTLSGAQPEDEAEYYCALWYSNLWVFGGGTKLTVLG
0.072
